system: HBL-1; assay: CellTiter-Glo Luminescent cell viability assay, HBL-1; type: cell-based; conditions: HBL1, HBL-1 cell line, 72 hours at 37° C., read-out: ED50 (the source's name)
Quick reference for EC50 among some compounds
parameter_measured: EC50 (µM)

INSERT INTO measurements (item_smiles, measured_result) VALUES
  ('CC[C@@H]1[C@H](F)C(=O)N[C@@H]1COc1nccc2cc(C(N)=O)c(OC)cc12', 14.8),
  ('Cc1ccc(-n2nc(C3CCN(C(C)C)CC3)cc2NC(=O)c2cccc(-c3cnn(CC(N)=O)c3)n2)nc1', 2.2),
  ('Cc1cc(-c2nc(C(=O)Nc3cc4oc(N5CCOCC5)nc4nc3N3CC[C@@H](O)C3)co2)ccn1', 11.1);
